- run_description: Previously determined no observable adverse effect level (NOAEL) and exposure at it
- run_parameters: in vivo
measured_parameter: NOAEL

[[record]]
structure_as_smiles = "Cc1cc(OCP(=O)(OCOC(=O)C(C)(C)C)OCOC(=O)C(C)(C)C)cc(C)c1Cc1ccc(O)c(Cc2ccccc2)c1"
observed = "5 mg/kg/day"


Reference for the values: patent US20190255080A1
